- Method: Human HepG2 cell viability assay in 384 well format
- Assay type: toxicity, cell-based
- Parameters: dose 125 nL, time 70.5 hour; concentration not given beside the values
- Measurement Setup: HepG2 cells, read-out: Inhibition
Documented cytotoxicity at 70.5 h across a set of compounds
Answer format: numeric, % implied, no suffix.

The cases that follow already have their cytotoxicity at 70.5 h on record.
compound="Cc1cnn(CC2CN(CC(=O)Nc3nccs3)CCO2)c1 (stereo not drawn)" unit_name=% experimental_result=-2.45
compound=CCn1ccnc1CN1CCCN(C(=O)Cc2ccc(C)cc2)CC1 unit_name=% experimental_result=-1.67
compound="O=c1[nH]c(CCN2CCCC2Cn2cncn2)nc2ccccc12 (stereo not drawn)" unit_name=% experimental_result=-9.5
compound=Cc1nc(O)cc(CCNc2nc(N(C)C)nc(C)c2C)n1 unit_name=% experimental_result=22
compound=CN(CC(=O)Nc1ccc(Br)cn1)C(=O)Cc1ccc(O)cc1 unit_name=% experimental_result=-1.46
compound="Cn1ccc(CN2CCCC(CNS(C)(=O)=O)C2)cc1=O (stereo not drawn)" unit_name=% experimental_result=-10.1

Please turn your attention to the following entry.
# cytotoxicity at 70.5 h of `COc1ccc(F)cc1C(=O)N1CCn2c(nnc2C(F)(F)F)C1` = -5.57

----------
- Method: Human HepG2 cell viability assay in 384 well format
- Format: toxicity, cell-based
- Parameters: dose 125 nL, time 70.5 hour; concentration not given beside the values
- Measurement Setup: HepG2 cells, read-out: Inhibition
Endpoint Name: cytotoxicity at 70.5 h
Give your result as the value with the unit written after it.

The cases that follow already have their cytotoxicity at 70.5 h on record.
molecule=NC(=O)CSc1ccccc1NCc1nc(Cc2ccccc2)no1 endpoint_name="cytotoxicity at 70.5 h" experimental_result=-6.14%
molecule=O=C(c1cnccn1)N1CCc2onc(Cn3cccn3)c2C1 endpoint_name="cytotoxicity at 70.5 h" experimental_result=-6.72%
molecule="O=S1(=O)CCC(S(=O)(=O)c2cccc(S(=O)(=O)N3CCOCC3)c2)C1 (stereo unspecified)" endpoint_name="cytotoxicity at 70.5 h" experimental_result=-8.35%
molecule=NCCc1nc(N(Cc2cncs2)C2CC2)c2ccccc2n1 endpoint_name="cytotoxicity at 70.5 h" experimental_result=24.1%
molecule=COc1cc(N2C[C@@H]3COC[C@]3(COCc3ccncc3)C2)ncn1 endpoint_name="cytotoxicity at 70.5 h" experimental_result=8.15%

Please turn your attention to the following entry.
# cytotoxicity at 70.5 h of `CSc1ccccc1NC(=O)C1CN(C(=O)c2ccc3c(c2)OCO3)C1` = 0.521%

----------
- Method: Human HepG2 cell viability assay in 384 well format
- Assay type: toxicity, cell-based
- Design: dose 125 nL, time 70.5 hour; concentration not given beside the values
- Measurement Setup: HepG2 cells, read-out: Inhibition
Endpoint Name: cytotoxicity at 70.5 h (%)
Answer format: numeric, % implied, no suffix.

The cases that follow already have their cytotoxicity at 70.5 h on record.
molecule=O=C(C[C@@H]1COC[C@H]2CN(C3CCC3)C[C@@H]12)NCc1cccnc1 endpoint_name="cytotoxicity at 70.5 h" experimental_result=-16.6
molecule="CC(C)(C)C(=O)N1CCCC(c2ncncc2-c2ccncc2)C1 (stereo unspecified)" endpoint_name="cytotoxicity at 70.5 h" experimental_result=-4.45
molecule=O=c1[nH]c2nc(NC3CC3)ncc2c(=O)n1-c1ccc(F)cc1 endpoint_name="cytotoxicity at 70.5 h" experimental_result=0.679
molecule="Cc1nn(C)c(Cl)c1C1CCCN1Cc1cccc(C(N)=O)c1 (stereo unspecified)" endpoint_name="cytotoxicity at 70.5 h" experimental_result=-10.9
molecule=O=C1NC(c2ccccc2)=N[C@@]12CC[C@@H]1CN(Cc3cccnc3)C[C@@H]12 endpoint_name="cytotoxicity at 70.5 h" experimental_result=-0.723
molecule="CC(C)OCCN(C)CC(c1cccs1)N1CCOCC1 (stereo unspecified)" endpoint_name="cytotoxicity at 70.5 h" experimental_result=29.2
molecule="COc1ccc(CCNC(=O)C2CCC(Cn3cnnn3)CC2)cc1 (stereo unspecified)" endpoint_name="cytotoxicity at 70.5 h" experimental_result=-2.47
molecule="Cc1cnn(C2CCCN(C(=O)c3ccc(NC4CC4)nc3)C2)c1 (stereo unspecified)" endpoint_name="cytotoxicity at 70.5 h" experimental_result=-13.3
molecule=CC(C)NC(=O)N1CCc2onc(C(=O)Nc3cccnc3)c2C1 endpoint_name="cytotoxicity at 70.5 h" experimental_result=-9.09
molecule=c1cc2c(cc1CN(Cc1nc(C3CC3)no1)C1CCCC1)OCO2 endpoint_name="cytotoxicity at 70.5 h" experimental_result=6.65

Please turn your attention to the following entry.
# cytotoxicity at 70.5 h of CN(C)c1ncccc1CNC(=O)NCC(c1cccs1)N(C)C (stereo unspecified) = -23.8
